biological target: T1, commercial A-beta oligomer (purchased from SynAging) (human); assay: SPR (MASS-1), antibody immobilized, commercial oligomer injected
T1 construct: also called commercial oligomer
T1 sequence (peptide, as listed by the source): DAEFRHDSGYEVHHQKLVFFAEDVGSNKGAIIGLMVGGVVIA
assay-endpoint: Binding to commercial oligomer (BRU)

[[record]]
binder = "Clone 14 (affinity matured VH with parental Vk, human IgG4 S241P / kappa) (antibody, V domains shown) VH: QVQLVQSGAEVKKPGASVKMSCKASGYSFTSYWINWVKQRPGQGLEWIGDVHPGRGVSTYNAKFKSRATLTLDTSISTAYMELSSLRSEDTAVYYCAKSDASGYWFFDVWGQGTTVTVSS VL: DVLMTQSPLSLPVTLGQPASISCRSSQSIVHSNGNTYLEWYQQRPGQSPRLLIYKVSNRFSGVPDRFSGSGSGTDFTLKISRVEAEDVGVYYCFQGSHVPFTFGQGTKLEIKR"
result = "22.3 BRU"

[[record]]
binder = "Clone 5 (affinity matured VH with parental Vk, human IgG4 S241P / kappa) (antibody, V domains shown) VH: QVQLVQSGAEVKKPGASVKMSCKASGYSFTSYWINWVKQRPGQGLEWIGDVHPGRGVSTYNAKFKSRATLTLDTSISTAYMELSSLRSEDTAVYYCARGALSPYWFFDVWGQGTTVTVSS VL: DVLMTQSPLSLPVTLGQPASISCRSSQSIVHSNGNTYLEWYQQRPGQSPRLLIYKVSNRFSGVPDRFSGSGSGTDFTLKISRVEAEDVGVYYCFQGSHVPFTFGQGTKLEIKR"
result = "32.3 BRU"

[[record]]
binder = "Clone 4 (affinity matured VH with parental Vk, human IgG4 S241P / kappa) (antibody, V domains shown) VH: QVQLVQSGAEVKKPGASVKMSCKASGYSFTSYWINWVKQRPGQGLEWIGDVHPGRGVSTYNAKFKSRATLTLDTSISTAYMELSSLRSEDTAVYYCARVSPTGYWFFDVWGQGTTVTVSS VL: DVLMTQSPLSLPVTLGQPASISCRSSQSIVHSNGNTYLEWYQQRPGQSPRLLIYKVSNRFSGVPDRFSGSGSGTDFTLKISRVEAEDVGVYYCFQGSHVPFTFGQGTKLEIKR"
result = "22.6 BRU"

[[record]]
binder = "parental antibody, PMN310 humanized antibody variant VH2/Vk5 (human IgG4 S241P / kappa) (antibody, V domains shown, also called parental huPMN310; huPMN310) VH: QVQLVQSGAEVKKPGASVKMSCKASGYSFTSYWINWVKQRPGQGLEWIGDVHPGRGVSTYNAKFKSRATLTLDTSISTAYMELSSLRSEDTAVYYCSRSHGNTYWFFDVWGQGTTVTVSS VL: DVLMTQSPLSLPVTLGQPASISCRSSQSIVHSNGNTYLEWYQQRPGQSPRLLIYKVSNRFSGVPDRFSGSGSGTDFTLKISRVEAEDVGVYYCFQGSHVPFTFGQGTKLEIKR"
result = "3 BRU"

